- system under test: mutant G12C K-RAS (Homo sapiens, UniProt P01116, G12C)
- Construct: made in house; host or cells: E. coli BL21
- test details: covalent adduct formation (CAF) with mutant G12C K-RAS
- Assay type: binding
- condition set: Table 6; 10 μM, 1 h
This section presents compounds with their documented % CAF @ 10 μM,1 h values.
Use % as the unit, but write only the number.

Using the record for C=CC(=O)N1C[C@H](C)N(c2nc(=O)n3c4c(c(-c5ccc(F)cc5F)c(Cl)cc24)OC[C@H]3CCCN2C3CCC2CN(C)C3)C[C@H]1C , state its measured % CAF @ 10 μM,1 h.
64.1

Using the record for C=CC(=O)N1C[C@H](C)N(c2nc(=O)n3c4c(c(-c5ccc(F)cc5F)c(Cl)cc24)OC[C@H]3CN(C)CC(F)(F)F)C[C@H]1C , state its measured % CAF @ 10 μM,1 h.
44.5

Using the record for C=CC(=O)N1C[C@H](C)N(c2nc(=O)n3c4c(c(-c5c(O)cccc5F)c(Cl)cc24)OC[C@H]3CN2CCN(C)CC2)C[C@H]1C (atropisomer, axis not shown) [Example 300] , state its measured % CAF @ 10 μM,1 h.
0

Using the record for C=CC(=O)N1C[C@H](C)N(c2nc(=O)n3c4c(c(-c5ccc(F)cc5F)c(Cl)cc24)OC[C@H]3CC2(O)CCN(C)CC2)C[C@H]1C , state its measured % CAF @ 10 μM,1 h.
82.4

Using the record for C=CC(=O)N1C[C@H](C)N(c2nc(=O)n3c4c(c(-c5cccc6ccccc56)c(Cl)cc24)OC[C@@H]3CN2CCN(C)CC2)C[C@H]1C (atropisomer, axis not shown) [Example 309] , state its measured % CAF @ 10 μM,1 h.
94.4

Using the record for C=CC(=O)N1C[C@H](C)N(c2nc(=O)n3c4c(c(-c5ccc(F)cc5F)c(Cl)cc24)OC[C@H]3CCCN2CC(F)(F)C2)C[C@H]1C , state its measured % CAF @ 10 μM,1 h.
68

Using the record for C=CC(=O)N1C[C@H](C)N(c2nc(=O)n3c4c(c(-c5ccc(F)cc5F)c(Cl)cc24)OC[C@H]3CO[C@H]2CCN(C)C2)C[C@H]1C , state its measured % CAF @ 10 μM,1 h.
54.6

----------
- system under test: mutant G12C K-RAS (Homo sapiens, UniProt P01116, G12C)
- Construct: made in house; host or cells: E. coli BL21
- test details: covalent adduct formation (CAF) with mutant G12C K-RAS
- Assay type: binding
- condition set: Table 6; 10 μM, 1 h
assay readout: % CAF @ 10 μM,1 h (%)
Use % as the unit, but write only the number.

The cases that follow already have their % CAF @ 10 μM,1 h on record.
[
  {
    "molecule": "C=CC(=O)N1C[C@H](C)N(c2nc(=O)n3c4c(c(-c5c(O)cccc5F)c(Cl)cc24)OC[C@@H]3CN2CCN(C)CC2)C[C@H]1C (atropisomer, axis not shown) [Example 305]",
    "system under test": "mutant G12C K-RAS (Homo sapiens, UniProt P01116, G12C)",
    "readout units": "%",
    "% CAF @ 10 μM,1 h": 0
  },
  {
    "molecule": "C=CC(=O)N1C[C@H](C)N(c2nc(=O)n3c4c(c(-c5ccc(F)cc5F)c(Cl)cc24)OC[C@H]3CCCn2ccnc2)C[C@H]1C",
    "system under test": "mutant G12C K-RAS (Homo sapiens, UniProt P01116, G12C)",
    "readout units": "%",
    "% CAF @ 10 μM,1 h": 89.4
  }
]

Next item in the queue.
Using the record for C=CC(=O)N1C[C@H](C)N(c2nc(=O)n3c4c(c(-c5ccc(F)cc5F)c(Cl)cc24)OC[C@H]3CC2CCN(CC)CC2)C[C@H]1C , state its measured % CAF @ 10 μM,1 h.
83.9

The reported measurements were obtained from patent US12162893B2.
